assay: Toxicity liver stage against HepG2, at 10uM; type: cell-based; design: test concentration 10 uM, cell line HepG2-A16-CD81EGFP; conditions: human, HepG2-A16-CD81EGFP cells; read-out: INHIBITION
Reported endpoint: cytotoxicity at 10 µM
Put down the number, then write its unit next to it.

Inquiry: Please give measured cytotoxicity at 10 µM of the following entry: Cc1ccc(C(=O)Nc2cc(C(N)=O)ccc2CN(C)C)cc1Cl
Reply text: 18.5%

Inquiry: Please give measured cytotoxicity at 10 µM of the following entry: CN(C)c1ncc(-c2ccc(C(N)=O)cc2)c(C2CNCCO2)n1 (stereo not given)
Reply text: -1.42%

Inquiry: Please give measured cytotoxicity at 10 µM of the following entry: Cc1ccc(C(=O)Nc2cc(C(N)=O)ccc2N2CCCCC2)cc1F
Reply text: 2.13%

Inquiry: Please give measured cytotoxicity at 10 µM of the following entry: CCn1cnnc1CNC(=O)N1CCN(Cc2ccsc2)CC1
Reply text: -15.4%

Inquiry: Please give measured cytotoxicity at 10 µM of the following entry: O=C(NCCc1ccncc1)[C@@H]1CC[C@@H]2[C@@H](CCN2Cc2ccco2)O1
Reply text: 1.15%

Inquiry: Please give measured cytotoxicity at 10 µM of the following entry: CC1CCN(CC2CCCN(C(=O)Nc3ccccn3)C2)CC1 (stereo not given)
Reply text: -9.85%

Inquiry: Please give measured cytotoxicity at 10 µM of the following entry: CCCn1cc(NC(=O)c2ccncc2)ccc1=O
Reply text: -8.44%

====

assay: Toxicity liver stage against HepG2, at 10uM; format: cell-based; design: test concentration 10 uM, cell line HepG2-A16-CD81EGFP; settings: human, HepG2-A16-CD81EGFP cells; read-out: INHIBITION
This section presents molecules with their documented cytotoxicity at 10 µM values.
Provide the reading as a plain figure in %.

Reference set (3 entries):
molecule=CC(C)c1ncncc1C(=O)N1CCN(Cc2ccccn2)CC1 unit_name=% measured=-2.87
molecule=COCCC(=O)N1CC2(CCN(Cc3ccccc3Cl)CC2)C1 unit_name=% measured=-73.1
molecule=CC(C)OCc1ccc(CNc2cncc(-n3cccn3)n2)cc1 unit_name=% measured=43.8

Inquiry: Please give measured cytotoxicity at 10 µM of the following entry: O=C(C1CC=CC1)N1CC[C@@H]2O[C@@H](COCC3CCOCC3)CC[C@@H]21
Reply text: 5.51

Inquiry: Please give measured cytotoxicity at 10 µM of the following entry: Cn1cc(CN2CCn3cc(Cn4cccn4)nc3C2)cn1
Reply text: 4.49

====

assay: Toxicity liver stage against HepG2, at 10uM; assay type: cell-based; set-up: test concentration 10 uM, cell line HepG2-A16-CD81EGFP; conditions: human, HepG2-A16-CD81EGFP cells; read-out: INHIBITION
This section presents compounds with their documented cytotoxicity at 10 µM values.
Provide the reading as a plain figure in %.

Reference set (5 entries):
compound=CN(C)c1nc2c(c(N(C)Cc3n[nH]c4c3CCCC4)n1)CCNCC2 unit_name=% measured=3.2
compound=COc1ccc(CNC(=O)NCCc2nc(C)c(C)s2)cn1 unit_name=% measured=-0.0813
compound=CN(C)Cc1cnc2n1CCN(C(=O)Cc1ccc(F)cc1)CC2 unit_name=% measured=-8.96
compound=COc1ccc(Cl)cc1C(=O)NCC1CCN(C(=O)c2ccoc2)CC1 unit_name=% measured=10.1
compound=CCN(Cc1cccc(C)c1)Cc1nc2c(cnn2C)c(=O)[nH]1 unit_name=% measured=-21.6

Inquiry: Please give measured cytotoxicity at 10 µM of the following entry: CCCn1nccc1-c1cc(C2CCN(C(C)=O)CC2)ccn1
Reply text: -1.68

Inquiry: Please give measured cytotoxicity at 10 µM of the following entry: O=C(O)c1c[nH]c2cc(NS(=O)(=O)c3cc(F)ccc3Cl)ccc12
Reply text: -1.43

Inquiry: Please give measured cytotoxicity at 10 µM of the following entry: c1ccc(N2CCOCC3(CCCN(c4nccs4)C3)C2)nc1 (stereo not drawn)
Reply text: -104

====

experiment: Toxicity liver stage against HepG2, at 10uM; type: cell-based; parameters: test concentration 10 uM, cell line HepG2-A16-CD81EGFP; settings: human, HepG2-A16-CD81EGFP cells; read-out: INHIBITION
Reported endpoint: cytotoxicity at 10 µM
Put down the number, then write its unit next to it.

compound=CN(Cc1ccc(-n2cccn2)cc1)Cc1cnc(N(C)C)nc1 measured=-1.28%
compound="COc1cc(CNC(=O)N2CCCC2c2cc(C)no2)ccn1 (centres undefined)" measured=1.95%
compound="COc1cc(CNC(C)c2nnc3n2CCC3)cc(OC)c1 (centres undefined)" measured=-41.7%
compound=Cc1nnc(SCc2ccccn2)s1 measured=-9.13%
compound=CC(=O)Nn1c(C)cc(CN2CCC(C(=O)N3CCCC3)CC2)c1C measured=1.57%

Inquiry: Please give measured cytotoxicity at 10 µM of the following entry: O=C(CC1CCCC1)N1CCn2cc(Cn3cccn3)nc2C1
Reply text: -75.4%

Inquiry: Please give measured cytotoxicity at 10 µM of the following entry: CC(C)c1cc(NC(=O)CN2CCNC(=O)C2)on1
Reply text: -11.6%

Inquiry: Please give measured cytotoxicity at 10 µM of the following entry: CSc1cc2c(cc1NC(=O)N(C)Cc1cnn(C)c1)OCCO2
Reply text: 5.25%

Inquiry: Please give measured cytotoxicity at 10 µM of the following entry: CCc1ccc(C(=O)N2CCN(CCS(C)(=O)=O)CC2)o1
Reply text: -8.03%

Inquiry: Please give measured cytotoxicity at 10 µM of the following entry: O=C1CC2(CCN(CC3CC3)C2)CN1c1cccc(F)c1 (centres undefined)
Reply text: -6.25%

====

test: Toxicity liver stage against HepG2, at 10uM; format: cell-based; set-up: test concentration 10 uM, cell line HepG2-A16-CD81EGFP; conditions: human, HepG2-A16-CD81EGFP cells; read-out: INHIBITION
This section presents molecules with their documented cytotoxicity at 10 µM values.
Provide the reading as a plain figure in %.

Reference set (2 entries):
molecule="O=C(NCC1(O)COCCN(Cc2cccc(O)c2)C1)c1ccccn1 (stereo not drawn)" unit_name=% measured=-4.29
molecule=N#CCCCS(=O)(=O)NC(=O)c1ccccc1F unit_name=% measured=0.749

Inquiry: Please give measured cytotoxicity at 10 µM of the following entry: Cc1cccc2nc(CNCc3cccc4c3OCCCO4)cn12
Reply text: 20.8

====

experiment: Toxicity liver stage against HepG2, at 10uM; format: cell-based; parameters: test concentration 10 uM, cell line HepG2-A16-CD81EGFP; details: human, HepG2-A16-CD81EGFP cells; read-out: INHIBITION
Reported endpoint: cytotoxicity at 10 µM (%)
Provide the reading as a plain figure in %.

Reference set (3 entries):
mol_smiles=CC(=O)N1CCC(Cc2cnc(-n3ccnc3)cn2)CC1 measured=-38.8
mol_smiles=CC(C)N(C)S(=O)(=O)N(Cc1cccs1)Cc1cccs1 measured=-45.2
mol_smiles=CC[C@H](C)[C@H](NC(=O)Cc1csc(-c2cccc(Cl)c2)n1)C(=O)O measured=-7.48

Inquiry: Please give measured cytotoxicity at 10 µM of the following entry: CCNc1nc(-c2cccnc2)c(-c2ccnc(N3CCOCC3)n2)s1
Reply text: -10.1

Inquiry: Please give measured cytotoxicity at 10 µM of the following entry: O=C(NCc1ccc(C(=O)N2CCCC2)cc1)c1cn2c(n1)CNCC2
Reply text: -10.2

Inquiry: Please give measured cytotoxicity at 10 µM of the following entry: CCc1nc(CCNc2ncccc2C#N)sc1C
Reply text: 15.4

====

experiment: Toxicity liver stage against HepG2, at 10uM; type: cell-based; parameters: test concentration 10 uM, cell line HepG2-A16-CD81EGFP; details: human, HepG2-A16-CD81EGFP cells; read-out: INHIBITION
This section presents molecules with their documented cytotoxicity at 10 µM values.
Provide the reading as a plain figure in %.

Reference set (3 entries):
molecule=CSCC(=O)N1CCCN(c2ccccc2C)CC1 reported_endpoint="cytotoxicity at 10 µM" measured=8.14
molecule="CCc1noc(C(C)N2CCc3c(ncn3C3CC3)C2)n1 (centres undefined)" reported_endpoint="cytotoxicity at 10 µM" measured=4.36
molecule="Cc1nc(C)n(CC2CCCN(CC(=O)Nc3cccnc3)C2)n1 (centres undefined)" reported_endpoint="cytotoxicity at 10 µM" measured=-4.84

Next up:
Inquiry: Please give measured cytotoxicity at 10 µM of the following entry: O=C(c1ccc2c(c1)CCC2)N1C[C@@H](CN2CCOCC2)[C@@H](CO)C1
Reply text: 20.7

====

assay: Toxicity liver stage against HepG2, at 10uM; format: cell-based; parameters: test concentration 10 uM, cell line HepG2-A16-CD81EGFP; conditions: human, HepG2-A16-CD81EGFP cells; read-out: INHIBITION
Reported endpoint: cytotoxicity at 10 µM (%)
Provide the reading as a plain figure in %.

compound="CC(C)c1ncc(S(C)(=O)=O)c(C2CCCNC2)n1 (stereo not drawn)" reported_endpoint="cytotoxicity at 10 µM" measured=-1.34
compound="O=C1CC[C@H]2[C@H](CCN2C(=O)C2CCCO2)N1Cc1ccncc1 (stereo partly drawn)" reported_endpoint="cytotoxicity at 10 µM" measured=0.898
compound="O=C1NCc2ccccc2CC12CCN(Cc1c(F)cccc1Cl)C2 (stereo not drawn)" reported_endpoint="cytotoxicity at 10 µM" measured=11.2

Inquiry: Please give measured cytotoxicity at 10 µM of the following entry: O=C(COCC1CC1)Nc1ccn(Cc2cccc3cccnc23)n1
Reply text: 13.9

Inquiry: Please give measured cytotoxicity at 10 µM of the following entry: Cc1ccc(C(=O)N2CCSCC2)cc1NC(=O)NCC1CCC1
Reply text: 3.07

Inquiry: Please give measured cytotoxicity at 10 µM of the following entry: COc1ccc(C(=O)COc2coc(CN3CCSCC3)cc2=O)cc1
Reply text: 8.13

Inquiry: Please give measured cytotoxicity at 10 µM of the following entry: CN[C@@H]1CCC[C@@H](Oc2ccccc2Oc2ccc(C)cc2)[C@@H]1O
Reply text: -14.2

Inquiry: Please give measured cytotoxicity at 10 µM of the following entry: COCCN1CCC1c1cc(NC2CCCC2)nc(C)n1 (stereo not drawn)
Reply text: 0.994

Inquiry: Please give measured cytotoxicity at 10 µM of the following entry: CCS(=O)(=O)N1CCCn2c(nc(CN3CCCC3)cc2=O)C1
Reply text: 1.88

Inquiry: Please give measured cytotoxicity at 10 µM of the following entry: CSc1c[nH]nc1NS(=O)(=O)c1ccc(C)c(C)c1
Reply text: 1.79

Inquiry: Please give measured cytotoxicity at 10 µM of the following entry: CN(CC(=O)N1CCC(COc2ccccc2)CC1)c1cnccn1
Reply text: -10.7

Inquiry: Please give measured cytotoxicity at 10 µM of the following entry: Cn1cc(CN2CCCC3(CCN(C(=O)c4cnccn4)C3)C2)cn1 (stereo not drawn)
Reply text: -69.6

Inquiry: Please give measured cytotoxicity at 10 µM of the following entry: Cc1nc(NCCc2ccccc2)cc(C(=O)N2CCOCC2)n1
Reply text: -3.01
